Test: Biodistribution in mice bearing PC-3 xenografts
Type: in vivo, Balb/c nu/nu mice
Details: Balb/c nu/nu, mouse, kidneys, iv, 100 pmol, total radioactivity, PC-3 xenografted Balb/c nu/nu mice, iv 100 pmol; 4 h pi; mean ± SD, n = 4; read-out: Kidneys activity uptake
Assign tissue uptake at 4 h to each entry below.

compound | measured-metric | result
CC(C)C[C@H](NC(=O)C[C@H](O)[C@H](CC(C)C)NC(=O)[C@H](Cc1c[nH]cn1)NC(=O)CN(C)C(=O)[C@@H](NC(=O)[C@H](C)NC(=O)[C@](C)(Cc1c[nH]c2ccccc12)NC(=O)[C@H](CCC(N)=O)NC(=O)[C@@H](Cc1ccccc1)NC(=O)CN1CCC(NC(=O)COCCOCCNC(=O)CN2CCN(CC(=O)O)CCN(CC(=O)O)CCN(CC(=O)O)CC2)CC1)C(C)C)C(N)=O [[^177Lu]Lu-PKB3, metal not drawn] | tissue uptake at 4 h | 5.9 %ID/g

Please find the next compound below.
Report tissue uptake at 4 h for CC(C)C[C@H](NC(=O)C[C@H](O)[C@H](CC(C)C)NC(=O)[C@H](Cc1c[nH]cn1)NC(=O)CN(C)C(=O)[C@@H](NC(=O)[C@H](C)NC(=O)[C@](C)(Cc1c[nH]c2ccccc12)NC(=O)[C@H](CCC(N)=O)NC(=O)[C@@H](Cc1ccccc1)NC(=O)CN1CCC(NC(=O)COCCOCCNC(=O)CCC(C(=O)O)N2CCN(CC(=O)O)CCN(CC(=O)O)CCN(CC(=O)O)CC2)CC1)C(C)C)C(N)=O (some centres unmarked) [[^177Lu]Lu-PKB2, metal not drawn] please.
9.5 %ID/g

====

Assay: Biodistribution in mice bearing PC-3 xenografts
Assay type: in vivo, Balb/c nu/nu mice
Details: Balb/c nu/nu, mouse, liver, iv, total radioactivity, PC-3 xenografted Balb/c nu/nu mice, iv 100 pmol; 2 h pi blocked (co-injected 100-fold molar excess NOTA-PEG2-RM26); mean ± SD, n = 3; read-out: Liver activity uptake
Assign tissue uptake at 2 h to each entry below.
Reply with the number and its unit after it.

compound | result
CC(C)C[C@H](NC(=O)C[C@H](O)[C@H](CC(C)C)NC(=O)[C@H](Cc1c[nH]cn1)NC(=O)CN(C)C(=O)[C@@H](NC(=O)[C@H](C)NC(=O)[C@](C)(Cc1c[nH]c2ccccc12)NC(=O)[C@H](CCC(N)=O)NC(=O)[C@@H](Cc1ccccc1)NC(=O)CN1CCC(NC(=O)COCCOCCNC(=O)CCC(C(=O)O)N2CCN(CC(=O)O)CCN(CC(=O)O)CCN(CC(=O)O)CC2)CC1)C(C)C)C(N)=O (some centres unmarked) [[^177Lu]Lu-PKB2, metal not drawn] | 0.2 %ID/g

Please find the next compound below.
Report tissue uptake at 2 h for CC(C)C[C@H](NC(=O)C[C@H](O)[C@H](CC(C)C)NC(=O)[C@H](Cc1c[nH]cn1)NC(=O)CN(C)C(=O)[C@@H](NC(=O)[C@H](C)NC(=O)[C@](C)(Cc1c[nH]c2ccccc12)NC(=O)[C@H](CCC(N)=O)NC(=O)[C@@H](Cc1ccccc1)NC(=O)CN1CCC(NC(=O)COCCOCCNC(=O)CN2CCN(CC(=O)O)CCN(CC(=O)O)CCN(CC(=O)O)CC2)CC1)C(C)C)C(N)=O [[^177Lu]Lu-PKB3, metal not drawn] please.
0.38 %ID/g
